ASSAY_SUMMARY: Quantitative High-Throughput drug screen in 47 multiple myeloma cell lines against the NCATS MIPE library collection: ARD_JJKsccE7 cell viability assay (AID 1918929;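 as to viability: 100% = DMSO-only wells and 0% = media-only wells without cells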)
MEASUREMENT_SETUP: ARD myeloma cell line viability, CellTiter-Glo, 48 h; series mostly up to 45.8 µM
Results filed as inconclusive are left out. The source made the active and inactive calls. Calls follow the shape of the dose curve; as a rule, active = well fitted cell-killing curve with a large enough effect; inconclusive = small, poorly fitted or top-dose-only effect, or effect the other way; inactive = no such curve, though single readings can be large or run the other way.
Mark one answer only. Choices: true (active), false (inactive)

| MOLECULE | CLASS |
| --- | --- |
| Cn1cc(-c2cnn3c(N)c(Br)c([C@H]4CCCNC4)nc23)cn1 | true |
| O=C(O)CCCCCC(=O)NN=C1CCCC1 | false |
| N#Cc1cc(NC(=O)Nc2nnc(-c3ccncc3)s2)ccc1-c1cn[nH]c1 | false |
| CC(O)(C#Cc1ccc2c(c1)N(c1nc(N)ncc1Cl)CC2)c1nccs1 (stereo not given) | true |

Next item in the queue.
Lookup: Could you kindly confirm the outcome this assay logged for C=C1C(=CC=C2CCC[C@]3(C)[C@@H]([C@H](C)CCCC(C)(C)O)CC[C@@H]23)C[C@@H](O)C[C@@H]1O ?
Found: true

---

What viability (% of control) was measured for each of the following?
ASSAY_SUMMARY: High-throughput drug toxicity screening in the BPDCN cell line Cal-1 (AID 1224825);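 also: cells exposed to compounds for 48 h; 100% = DMSO and 0% = bortezomib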
MEASUREMENT_SETUP: Cal-1 BPDCN cell viability, qHTS; at 45.8 µM (top of the series) unless noted
Give bare numbers, in %.

Please give viability (% of control), item by item, for the list that follows.
1. C[C@H](NC(=O)C(C#N)=Cc1cccc(Br)n1)c1ccccc1
2. CNC(=O)Nc1ccc(-c2nc(N3CC4CCC(C3)O4)c3cnn(C4CCC5(CC4)OCCO5)c3n2)cc1

Found:
1: 4.37; 2: 8.62

Please give viability (% of control), item by item, for the list that follows.
1. CCCCOc1ccc(C(=O)Nc2ccc(F)cc2F)cc1
2. COc1cc(C[C@@H](CO)[C@H](CO)Cc2ccc(O)c(OC)c2)ccc1O
3. CCCCCCCCCCCCCCCC(=O)OC[C@@H](NC(=O)C(Cl)Cl)[C@H](O)c1ccc([N+](=O)[O-])cc1

Found:
1. 105
2. 23.4
3. 117

---

ASSAY_SUMMARY: Quantitative High-Throughput drug screen in 47 multiple myeloma cell lines against the NCATS MIPE library collection: FR4_PLB cell viability assay (AID 1918924; also: nearly all actives have a fitted effect of over 35% in size)
MEASUREMENT_SETUP: FR4_PLB myeloma cells viability, CellTiter-Glo ATP, 48 h; series mostly up to 45.8 µM
Results filed as inconclusive are left out. Calls of active or inactive are those of the source. Calls come from the whole dose curve; as a rule, active = well fitted cell-killing curve with a large enough effect; inconclusive = small, poorly fitted or top-dose-only effect, or effect the other way; inactive = no such curve, though single readings can be large or run the other way.
Mark one answer only. Choices: active, inactive

Look over these answered cases.
| COMPOUND | CLASS |
| --- | --- |
| Nc1nc2c(c(=O)[nH]1)N(C=O)[C@H](CNc1ccc(C(=O)N[C@@H](CCC(=O)O)C(=O)O)cc1)CN2 | inactive |
| COC(=O)[C@H](CCCN=C(N)N)NS(=O)(=O)c1ccc(C)cc1 | inactive |
| Cc1onc(-c2ccccc2)c1C(=O)N[C@@H]1C(=O)N2[C@@H](C(=O)O)C(C)(C)S[C@@H]12 | inactive |

Lookup: Could you kindly confirm the outcome this assay logged for CCOC(=O)[C@@H](N)Cc1ccc(-c2cc(O[C@H](c3ccc(Cl)cc3-n3ccc(C)n3)C(F)(F)F)nc(N)n2)cc1 ?
Found: active

Lookup: Could you kindly confirm the outcome this assay logged for C=Cc1c(C)c2cc3nc(cc4[nH]c(cc5nc(cc1[nH]2)C(C)=C5CCC(=O)O)c(CCC(=O)OC)c4C)[C@@]1(C)C3=CC=C(C(=O)OC)[C@H]1C(=O)OC ?
Found: active

Lookup: Could you kindly confirm the outcome this assay logged for COC(=O)[C@@H]1CC2=CC(=O)CC[C@]2(C)[C@@]23O[C@@H]2C[C@@]2(C)[C@H](CC[C@@]24CCC(=O)O4)[C@@H]13 ?
Found: inactive

Lookup: Could you kindly confirm the outcome this assay logged for CC(=O)O[C@@]12CO[C@H]1C[C@H](O)[C@@]1(C)C(=O)[C@H](O)C3=C(C)[C@@H](OC(=O)C(O)[C@@H](NC(=O)OC(C)(C)C)c4ccccc4)C[C@@](O)([C@@H](OC(=O)c4ccccc4)[C@@H]21)C3(C)C (stereo partly drawn) ?
Found: inactive

Lookup: Could you kindly confirm the outcome this assay logged for COc1ccc(S(=O)(=O)Nc2cccnc2Nc2ccc(O)cc2)cc1 ?
Found: active

Lookup: Could you kindly confirm the outcome this assay logged for c1cncc(CN2CCC(n3ncc4c(N5CCOCC5)nc(-c5ccc6[nH]ccc6c5)nc43)CC2)c1 ?
Found: active

Origin of values: PubChem BioAssay (NCATS)
